- Test: Plasma pharmacokinetics of tipifarnib, LCMS/MS, non-compartmental analysis
- Assay type: in vivo, human
- Conditions: human, plasma, oral, 1200 mg, Cmax, high, Day 1, 1200 mg, plasma
Readout type: Cmax (ng/mL)
Answers are plain numbers, in ng/mL.

q: Query: Cmax; subject: Cn1cncc1[C@@](N)(c1ccc(Cl)cc1)c1ccc2c(c1)c(-c1cccc(Cl)c1)cc(=O)n2C [tipifarnib, Tipifarnib]
a: 3160

---

- Test: Plasma pharmacokinetics of tipifarnib, LCMS/MS, non-compartmental analysis
- Assay type: in vivo, human
- Conditions: human, plasma, oral, 1400 mg, AUC12h, high, Day 5, 1400 mg bid, plasma
Readout type: AUC(0-t)
Express the reported value numerically, then name its unit.

q: Which AUC(0-t) value belongs to "Cn1cncc1[C@@](N)(c1ccc(Cl)cc1)c1ccc2c(c1)c(-c1cccc(Cl)c1)cc(=O)n2C" ?
a: 25600 ng·h/mL

---

- Test: Plasma pharmacokinetics of tipifarnib, LCMS/MS, non-compartmental analysis
- Format: in vivo, human
- Conditions: human, plasma, oral, 1400 mg, AUC12h, median, Day 5, 1400 mg bid, plasma
Readout type: AUC(0-t)
Please state the value followed by its unit.

q: I would be grateful if you could share the reported AUC(0-t) for Cn1cncc1[C@@](N)(c1ccc(Cl)cc1)c1ccc2c(c1)c(-c1cccc(Cl)c1)cc(=O)n2C [tipifarnib, Tipifarnib] .
a: 17100 ng·h/mL

---

- Test: Plasma pharmacokinetics of tipifarnib, LCMS/MS, non-compartmental analysis
- Type: in vivo, human
- Conditions: human, plasma, oral, 1400 mg, Tmax, low, Day 5, 1400 mg bid, plasma
Readout type: Tmax (h)
Numbers only, in h.

q: Fill in the blank: the reported Tmax of Cn1cncc1[C@@](N)(c1ccc(Cl)cc1)c1ccc2c(c1)c(-c1cccc(Cl)c1)cc(=O)n2C [tipifarnib, Tipifarnib] is ____.
a: 3

---

- Test: Plasma pharmacokinetics of tipifarnib, LCMS/MS, non-compartmental analysis
- Type: in vivo, human
- Conditions: human, plasma, oral, 1400 mg, Tmax, high, Day 1, 1400 mg, plasma
Readout type: Tmax
Just the number plus its unit, please.

q: Request the reported Tmax associated with "Cn1cncc1[C@@](N)(c1ccc(Cl)cc1)c1ccc2c(c1)c(-c1cccc(Cl)c1)cc(=O)n2C"
a: 3.2 h

---

- Test: Plasma pharmacokinetics of tipifarnib, LCMS/MS, non-compartmental analysis
- Type: in vivo, human
- Conditions: human, plasma, oral, 1200 mg, Tmax, median, Day 5, 1200 mg bid, plasma
Readout type: Tmax (h)
Numbers only, in h.

q: What value of measured Tmax is listed for Cn1cncc1[C@@](N)(c1ccc(Cl)cc1)c1ccc2c(c1)c(-c1cccc(Cl)c1)cc(=O)n2C [tipifarnib, Tipifarnib] ?
a: 3

---

- Test: Plasma pharmacokinetics of tipifarnib, LCMS/MS, non-compartmental analysis
- Type: in vivo, human
- Conditions: human, plasma, oral, 1200 mg, AUC12h, median, Day 1, 1200 mg, plasma
Readout type: AUC(0-t) (ng·h/mL)
Give bare numbers, in ng·h/mL.

q: Which value of AUC(0-t) has been reported for "Cn1cncc1[C@@](N)(c1ccc(Cl)cc1)c1ccc2c(c1)c(-c1cccc(Cl)c1)cc(=O)n2C" in the records?
a: 4740

---

- Test: Plasma pharmacokinetics of tipifarnib, LCMS/MS, non-compartmental analysis
- Format: in vivo, human
- Conditions: human, plasma, oral, 1400 mg, Cmax, median, Day 5, 1400 mg bid, plasma
Readout type: Cmax (ng/mL)
Numbers only, in ng/mL.

q: What value of measured Cmax is listed for "Cn1cncc1[C@@](N)(c1ccc(Cl)cc1)c1ccc2c(c1)c(-c1cccc(Cl)c1)cc(=O)n2C" ?
a: 2630

---

- Test: Plasma pharmacokinetics of tipifarnib, LCMS/MS, non-compartmental analysis
- Assay type: in vivo, human
- Conditions: human, plasma, oral, 1400 mg, Cmax, low, Day 5, 1400 mg bid, plasma
Readout type: Cmax

q: Please look up its Cmax: "Cn1cncc1[C@@](N)(c1ccc(Cl)cc1)c1ccc2c(c1)c(-c1cccc(Cl)c1)cc(=O)n2C"
a: 1370 ng/mL

---

- Test: Plasma pharmacokinetics of tipifarnib, LCMS/MS, non-compartmental analysis
- Format: in vivo, human
- Conditions: human, plasma, oral, 1200 mg, Cmax, median, Day 5, 1200 mg bid, plasma
Readout type: Cmax
Please provide the amount together with its unit, number first.

q: Endpoint output: Cmax of "Cn1cncc1[C@@](N)(c1ccc(Cl)cc1)c1ccc2c(c1)c(-c1cccc(Cl)c1)cc(=O)n2C" . Value?
a: 1210 ng/mL

---

- Test: Plasma pharmacokinetics of tipifarnib, LCMS/MS, non-compartmental analysis
- Assay type: in vivo, human
- Conditions: human, plasma, oral, 1200 mg, AUC12h, high, Day 1, 1200 mg, plasma
Readout type: AUC(0-t)
Could you give the number and then its unit, please?

q: What value of AUC(0-t) has been recorded for this entry: "Cn1cncc1[C@@](N)(c1ccc(Cl)cc1)c1ccc2c(c1)c(-c1cccc(Cl)c1)cc(=O)n2C"
a: 15700 ng·h/mL

---

- Test: Plasma pharmacokinetics of tipifarnib, LCMS/MS, non-compartmental analysis
- Assay type: in vivo, human
- Conditions: human, plasma, oral, 1200 mg, Cmax, low, Day 5, 1200 mg bid, plasma
Readout type: Cmax (ng/mL)
Numbers only, in ng/mL.

q: Which Cmax value belongs to "Cn1cncc1[C@@](N)(c1ccc(Cl)cc1)c1ccc2c(c1)c(-c1cccc(Cl)c1)cc(=O)n2C" ?
a: 762

---

- Test: Plasma pharmacokinetics of tipifarnib, LCMS/MS, non-compartmental analysis
- Assay type: in vivo, human
- Conditions: human, plasma, oral, 1400 mg, Tmax, median, Day 5, 1400 mg bid, plasma
Readout type: Tmax (h)
Answers are plain numbers, in h.

q: Recorded Tmax of "Cn1cncc1[C@@](N)(c1ccc(Cl)cc1)c1ccc2c(c1)c(-c1cccc(Cl)c1)cc(=O)n2C" , please.
a: 4

---

- Test: Plasma pharmacokinetics of tipifarnib, LCMS/MS, non-compartmental analysis
- Type: in vivo, human
- Conditions: human, plasma, oral, 1200 mg, AUC12h, low, Day 1, 1200 mg, plasma
Readout type: AUC(0-t) (ng·h/mL)
Numbers only, in ng·h/mL.

q: For the compound shown here, Cn1cncc1[C@@](N)(c1ccc(Cl)cc1)c1ccc2c(c1)c(-c1cccc(Cl)c1)cc(=O)n2C [tipifarnib, Tipifarnib] , give the reported AUC(0-t).
a: 3240

---

- Test: Plasma pharmacokinetics of tipifarnib, LCMS/MS, non-compartmental analysis
- Type: in vivo, human
- Conditions: human, plasma, oral, 1400 mg, AUC12h, median, Day 1, 1400 mg, plasma
Readout type: AUC(0-t) (ng·h/mL)
Answers are plain numbers, in ng·h/mL.

q: Fill blank: measured AUC(0-t) of the compound "Cn1cncc1[C@@](N)(c1ccc(Cl)cc1)c1ccc2c(c1)c(-c1cccc(Cl)c1)cc(=O)n2C" is ____.
a: 13800

---

- Test: Plasma pharmacokinetics of tipifarnib, LCMS/MS, non-compartmental analysis
- Format: in vivo, human
- Conditions: human, plasma, oral, median Cmax, remaining patients, day 1
Readout type: Cmax (ng/mL)
Numbers only, in ng/mL.

q: What measured Cmax goes with "Cn1cncc1[C@@](N)(c1ccc(Cl)cc1)c1ccc2c(c1)c(-c1cccc(Cl)c1)cc(=O)n2C" ?
a: 1290

---

- Test: Plasma pharmacokinetics of tipifarnib, LCMS/MS, non-compartmental analysis
- Type: in vivo, human
- Conditions: human, plasma, oral, 1200 mg, Tmax, low, Day 5, 1200 mg bid, plasma
Readout type: Tmax (h)
One number for each entry, in h.

q: Would you kindly share the measured Tmax for Cn1cncc1[C@@](N)(c1ccc(Cl)cc1)c1ccc2c(c1)c(-c1cccc(Cl)c1)cc(=O)n2C [tipifarnib, Tipifarnib] ?
a: 1

---

- Test: Plasma pharmacokinetics of tipifarnib, LCMS/MS, non-compartmental analysis
- Assay type: in vivo, human
- Conditions: human, plasma, oral, median AUC12h, remaining patients, day 5
Readout type: AUC(0-t) (ng·h/mL)
Give bare numbers, in ng·h/mL.

q: Look at this molecule and give its reported AUC(0-t). Cn1cncc1[C@@](N)(c1ccc(Cl)cc1)c1ccc2c(c1)c(-c1cccc(Cl)c1)cc(=O)n2C [tipifarnib, Tipifarnib]
a: 4320

---

- Test: Plasma pharmacokinetics of tipifarnib, LCMS/MS, non-compartmental analysis
- Assay type: in vivo, human
- Conditions: human, plasma, oral, 1200 mg, Cmin, high, Day 5, 1200 mg bid, plasma
Readout type: concentration at 5 day (µg/mL)
One number for each entry, in µg/mL.

q: // concentration at 5 day lookup, key: "Cn1cncc1[C@@](N)(c1ccc(Cl)cc1)c1ccc2c(c1)c(-c1cccc(Cl)c1)cc(=O)n2C"
a: 0.283

---

- Test: Plasma pharmacokinetics of tipifarnib, LCMS/MS, non-compartmental analysis
- Type: in vivo, human
- Conditions: human, plasma, oral, 1200 mg, Tmax, median, Day 1, 1200 mg, plasma
Readout type: Tmax (h)
Answers are plain numbers, in h.

q: Fill blank: measured Tmax of the molecule "Cn1cncc1[C@@](N)(c1ccc(Cl)cc1)c1ccc2c(c1)c(-c1cccc(Cl)c1)cc(=O)n2C" is ____.
a: 2.1
